Plant response rating, Cocklebur values, listed per item
# Tested on: cocklebur (Xanthium strumarium)
# protocol-description: Test B pre-/postemergence
# Assay type: in vivo
# condition-context: Rate 500 g/ha, Postemergence
property: Plant response rating, Cocklebur

>  <molecule-smiles>
Cc1cnc(-c2ccc(C(F)(F)F)cc2)nc1Cn1ccc(C(F)(F)F)n1

>  <tested-target>
cocklebur (Xanthium strumarium)

>  <result-number>
9

$$$$
>  <molecule-smiles>
Cc1cnc(-c2ccc(C(F)(F)F)cc2)nc1Cc1cccc(C(F)(F)F)c1

>  <tested-target>
cocklebur (Xanthium strumarium)

>  <result-number>
10

$$$$
>  <molecule-smiles>
Cc1cnc(-c2ccc(C(F)(F)F)cc2)nc1Cn1cnc(C(F)(F)F)c1

>  <tested-target>
cocklebur (Xanthium strumarium)

>  <result-number>
9

$$$$
>  <molecule-smiles>
Cc1cnc(-n2ccc(C(F)(F)F)n2)nc1C(=O)c1cccc(C(F)(F)F)c1

>  <tested-target>
cocklebur (Xanthium strumarium)

>  <result-number>
8

$$$$
